tested on: NCI-H460; assay: Cytotoxicity against human NCI-H460 cells after 48 hrs by MTT assay; assay type: functional; details: Homo sapiens, NCI-H460, 48 h
So basically: is GI50 under 20 µM? Then yes (1). Not under? Then no (0).

Example entries and their recorded answers appear below.
INPUT: Check if GI50 falls below 20 µM for `O=C(NO)N1CCN(C(=S)N/N=C/c2ccc(Cl)cc2)CC1` .
OUTPUT: yes (1)

INPUT: Now the same for `O=C(NO)N1CCN(C(=S)N/N=C/c2c3ccccc3cc3ccccc23)CC1`
OUTPUT: yes (1)

Next:
INPUT: Check if GI50 falls below 20 µM for `O=C1Nc2ccccc2/C1=N/NC(=S)N1CCN(C(=O)NO)CC1` .
OUTPUT: no (0)

INPUT: Now the same for `Cc1ccc(/C=N/NC(=S)N2CCN(C(=O)NO)CC2)cc1`
OUTPUT: no (0)

INPUT: Now the same for `O=C(NO)N1CCN(C(=S)N/N=C/c2ccccc2Cl)CC1`
OUTPUT: no (0)

INPUT: Now the same for `O=C(NO)N1CCN(C(=S)N/N=C/c2ccccc2O)CC1`
OUTPUT: yes (1)

====

Collected GI50 values appear next to each entry.
system: U-251; experiment: Cytotoxicity against human U251 cells after 48 hrs by MTT assay; type: functional; details: Homo sapiens, U-251, 48 h
Report only the number, with the unit µM understood.

INPUT: Consider the compound `O=C(NO)N1CCN(C(=S)N/N=C/c2ccccc2O)CC1` and give its measured GI50.
OUTPUT: 14.2

INPUT: Now the same for `O=C(NO)N1CCN(C(=S)N/N=C/c2ccc(Cl)cc2)CC1`
OUTPUT: 8.5

INPUT: Now the same for `O=C(NO)N1CCN(C(=S)N/N=C/c2c3ccccc3cc3ccccc23)CC1`
OUTPUT: 65

INPUT: Now the same for `Cc1ccc(/C=N/NC(=S)N2CCN(C(=O)NO)CC2)cc1`
OUTPUT: 27.5

Would you kindly look at the next entry?
INPUT: Consider the compound `O=C(NO)N1CCN(C(=S)N/N=C/c2ccccc2Cl)CC1` and give its measured GI50.
OUTPUT: 13.5

====

test system: HL-60; experiment: Growth inhibition of human HL60 cells after 48 hrs; type: functional, cell-based; conditions: HL-60, 48 h
assayReadout: IC50 (nM)
Report only the number, with the unit nM understood.

INPUT: Consider the molecule `O=C(NO)N1CCN(C(=S)N/N=C/c2ccccc2O)CC1` and give its measured IC50.
OUTPUT: 600
